Tested on: RAW264.7
assay info: Antiinflammatory activity against mouse RAW264.7 cells assessed as reduction in LPS-induced IL-6 level incubated for 1 hr followed by LPS stimulation and measured after 24 hrs by ELISA
Type: functional, cell-based
The following molecules are shown together with reported IC50 values.

Example molecules with recorded IC50:
structure_notation=CN1CCN(CCCCCOc2cccc(N3C(=O)S/C(=C\c4ccc(Oc5ccc([N+](=O)[O-])cc5)cc4)C3=O)c2)CC1 val="> 10 µM"
structure_notation=CN1CCN(CCCCCOc2cccc(N3C(=O)S/C(=C\c4ccc(Oc5ccc(Cl)cc5)cc4)C3=O)c2)CC1 val="> 10 µM"
structure_notation=CN1CCN(CCCCCOc2cccc(N3C(=O)S/C(=C\c4ccc(Oc5ccc(F)cc5)cc4)C3=O)c2)CC1 val="> 10 µM"

Now let's try a different one.
Entry CN1CCN(CCCOc2ccc(N3C(=O)S/C(=C\c4ccc(Oc5ccc(C#N)cc5)cc4)C3=O)cc2)CC1 : reported IC50 = ?
> 10 µM

src = ChEMBL document CHEMBL4680142
